assay.method.text: Blood-brain barrier penetration potential using MDR1-MDCK cell monolayers
Format: in vitro ADME
settings: dog, MDCK-MDR1, apical dosing, pH 7.4, read-out: Papp A-B × 10^−6 cm/s
Examples of compounds with documented Papp A→B at 120 min, 5 µM follow.
A complete answer gives the number followed by the unit.

[[record]]
compound = "O=[N+]([O-])c1ccc(-c2cccc(-c3nnn[nH]3)c2)cc1NCc1ccccc1"
measured_metric = "Papp A→B at 120 min, 5 µM"
result = "38.3 ×10⁻⁶ cm/s"

[[record]]
compound = "O=[N+]([O-])c1ccc(-c2ccc(-c3nn[nH]n3)cc2)cc1NCc1ccccc1"
measured_metric = "Papp A→B at 120 min, 5 µM"
result = "34.1 ×10⁻⁶ cm/s"

[[record]]
compound = "NS(=O)(=O)c1cccc(-c2ccc([N+](=O)[O-])c(NCc3ccccc3)c2)c1"
measured_metric = "Papp A→B at 120 min, 5 µM"
result = "27.5 ×10⁻⁶ cm/s"


Consider the additional compound presented here.
Specify reported Papp A→B at 120 min, 5 µM for the compound shown: O=[N+]([O-])c1ccc(-c2cccc(C(O)C(F)(F)F)c2)cc1NCc1ccccc1 (stereo not shown) 15.3 ×10⁻⁶ cm/s

* * *

assay.method.text: In vivo blood and brain exposure and brain/plasma ratio in ICR mice
settings: mouse, brain / plasma (method describes hemolyzed whole blood); male ICR mice, 20 mg/kg once daily, third day
measured.metric: Kp
The reply should be a number, written without any unit.

Specify reported Kp for the compound shown: O=[N+]([O-])c1ccc(-c2cccc(C(O)C(F)(F)F)c2)cc1NCc1ccccc1 (stereo not shown) 1.54

* * *

study.system: Aβ40 (Homo sapiens)
Construct: pre-treated Aβ40 (40 μM in 20 mM Tris, pH 7.4)
Sequence (P05067 672-711 limits assumed): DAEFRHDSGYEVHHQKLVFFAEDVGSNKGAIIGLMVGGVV
assay.method.text: Thioflavin T (ThT) Aβ aggregation assay
settings: 20 μM Aβ40, 37 degrees C
Examples of compounds with documented IC50 follow.
Your answer should be a plain number; it is taken to be in µM.

Recorded results for 2 compounds are shown here.
[[record]]
compound = "O=[N+]([O-])c1ccc(-c2cccc(C(O)C(F)(F)F)c2)cc1NCc1ccccc1 (stereo not drawn)"
measured_metric = "IC50"
readout_units = "µM"
quantitative_readout = 3.09

[[record]]
compound = "O=C(C1CCN(c2ccc([N+](=O)[O-])c(NCc3ccccc3)c2)CC1)N1CCCC1"
measured_metric = "IC50"
readout_units = "µM"
quantitative_readout = 17.9


Consider the additional compound presented here.
Specify reported IC50 for the compound shown: CC1CN(c2ccc([N+](=O)[O-])c(Nc3ccccc3)c2)CCN1C(=O)c1ccccc1 (stereo not drawn) 6.12

* * *

assay.method.text: In vivo blood and brain exposure and brain/plasma ratio in ICR mice
settings: mouse, whole blood; male ICR mice, 20 mg/kg once daily, third day; read-out: Maximum concentration (Cmax) in blood
measured.metric: Cmax
A complete answer gives the number followed by the unit.

Specify reported Cmax for the molecule shown: O=[N+]([O-])c1ccc(-c2cccc(C(O)C(F)(F)F)c2)cc1NCc1ccccc1 (stereo not shown) [TRV 1140] 87.5 ng/mL

* * *

assay.method.text: In vivo blood and brain exposure and brain/plasma ratio in ICR mice
settings: mouse, brain; male ICR mice, 20 mg/kg once daily, third day; read-out: Maximum concentration (Cmax) in brain
measured.metric: Cmax (ng/mL)
Your answer should be a plain number; it is taken to be in ng/mL.

Specify reported Cmax for the compound shown: O=[N+]([O-])c1ccc(-c2cccc(C(O)C(F)(F)F)c2)cc1NCc1ccccc1 (stereo not shown) [TRV 1140] 238
